assayed_target: dopamine transporter (DAT)
Construct: Dopamine transporter IC50 (nM) [3H]WIN 35,428; other: unit not given
assay: Competition binding with [3H]WIN 35,428 at the dopamine transporter
experimental_parameters: Table 5; read-out: Dopamine transporter IC50 (nM) [3H]WIN 35,428
measured_quantity: IC50

Query string: Please report IC50 for the following compound: COC(=O)[C@H]1[C@@H](OC(=O)c2ccccc2)C[C@@H]2CC[C@H]1N2C [(−)-Cocaine, cocaine, reference compound]
Result string: 95 nM

Query string: Please report IC50 for the following compound: COC(=O)C1C(c2ccc(F)cc2)CC2CCC1N2C (stereo not shown) [WIN 35,428, reference compound]
Result string: 11 nM

Query string: Please report IC50 for the following compound: C=CCCCOCC1C2CCC(CC1c1ccc(Cl)c(Cl)c1)O2 (stereo not shown)
Result string: 58 nM

Query string: Please report IC50 for the following compound: CC(C)CC(=O)OCC1C2CCC(CC1c1ccc(Cl)c(Cl)c1)O2 (stereo not shown)
Result string: 75 nM

* * *

assayed_target: dopamine transporter (DAT) (UniProt Q9GJT6)
Construct: Dopamine transporter IC50 (nM) [3H]WIN 35,428; other: unit not given
assay: Competition binding with [3H]WIN 35,428 at the dopamine transporter
experimental_parameters: read-out: DAT (binding, Table 6); unit inferred
measured_quantity: pIC50
Quick note: pIC50 values are minus log10 of concentrations in mol/L.

Query string: Please report pIC50 for the following molecule: COC(=O)C1C(c2ccc(F)cc2)CC2CCC1N2CCOC(C)=O (stereo not shown)
Result string: 7.70

* * *

assayed_target: dopamine transporter (DAT) (UniProt Q9GJT6)
Construct: Dopamine transporter IC50 (nM) [3H]WIN 35,428; other: unit not given
assay: Competition binding with [3H]WIN 35,428 at the dopamine transporter
experimental_parameters: Table 5; read-out: Dopamine transporter IC50 (nM) [3H]WIN 35,428
Answer each item with its documented IC50.
Dear colleague, please return just the value in nM, with no unit written.

Query string: Please report IC50 for the following compound: C=CCCC(=O)OCC1C2CCC(CC1c1ccc(Cl)c(Cl)c1)O2 (stereo not drawn)
Result string: 20

Query string: Please report IC50 for the following compound: O=C(CCC1CO1)OCC1C2CCC(CC1c1ccc(Cl)c(Cl)c1)O2 (racemic)
Result string: 17

Query string: Please report IC50 for the following compound: CCCCC(=O)OCC1C2CCC(CC1c1ccc(Cl)c(Cl)c1)O2 (stereo not drawn)
Result string: 71

* * *

Answer each item with its documented pIC50.
assayed_target: serotonin transporter (SERT) (UniProt A7KAX8)
assay: Competition binding with [3H]citalopram at the serotonin transporter
experimental_parameters: unit inferred; read-out: SERT (binding, Table 6)
Quick note: pIC50 values are minus log10 of concentrations in mol/L.

Query string: Write down the reported pIC50 (system: serotonin transporter (SERT) (UniProt A7KAX8)) of O=C(CCC1CO1)OCC1C2CCC(CC1c1ccc(Cl)c(Cl)c1)O2 (racemic) [Compound O-1834]
Result string: 6.53

Query string: Write down the reported pIC50 (system: serotonin transporter (SERT) (UniProt A7KAX8)) of O=C(OCCCN1C(=O)C=CC1=O)C1C(c2ccc(F)cc2)CC2CCC1N2CCN1C(=O)C=CC1=O (centres unmarked) [Compound O-2335]
Result string: 5.00

Query string: Write down the reported pIC50 (system: serotonin transporter (SERT) (UniProt A7KAX8)) of COC(=O)C1C(c2ccc(F)cc2)CC2CCC1N2CCN1C(=O)C=CC1=O (centres unmarked) [Compound O-1233]
Result string: 5.52

Query string: Write down the reported pIC50 (system: serotonin transporter (SERT) (UniProt A7KAX8)) of O=C(OCCN1C(=O)C=CC1=O)C1C(c2ccc(F)cc2)CC2CCC1N2CCN1C(=O)C=CC1=O (centres unmarked) [Compound O-2315]
Result string: 4.85

Query string: Write down the reported pIC50 (system: serotonin transporter (SERT) (UniProt A7KAX8)) of C=CCOC(=O)C1C2CCC(CC1c1ccc(Cl)c(Cl)c1)O2 (centres unmarked) [Compound O-2227]
Result string: 7.49

Query string: Write down the reported pIC50 (system: serotonin transporter (SERT) (UniProt A7KAX8)) of O=C(OCCCN1C(=O)C=CC1=O)C1C(c2ccc(F)cc2)CC2CCC1N2CCCN1C(=O)C=CC1=O (centres unmarked) [Compound O-2492]
Result string: 5.70

Query string: Write down the reported pIC50 (system: serotonin transporter (SERT) (UniProt A7KAX8)) of COC(=O)C1C(c2ccc(F)cc2)CC2CCC1N2CCOC(=O)CCC1CO1 (centres unmarked) [Compound O-1899]
Result string: 6.64

Query string: Write down the reported pIC50 (system: serotonin transporter (SERT) (UniProt A7KAX8)) of COCC(=O)OCCCN1C2CCC1C(C(=O)OC)C(c1ccc(F)cc1)C2 (centres unmarked) [Compound O-1071]
Result string: 5.52
